pKi: −log10 of the molar value.
Below: molecules with pKi recorded for Tyrosine-protein kinase JAK2 (Homo sapiens) in separate published works.

The examples below pair each entry with its known result.
INSERT INTO measurements (molecule, result) VALUES
  ('Oc1c(F)cc(C2Nc3ccccc3-c3ncnc4[nH]cc2c34)cc1F (stereo not shown)', '> 6.60'),
  ('CC(N)(C(=O)O)c1ccc(Nc2nc(-c3c(F)cccc3F)nc3c2C(=O)NC3)cc1 (stereo not shown)', '≤ 6.00'),
  ('N#Cc1cccc(F)c1-c1cc(-n2ccc(N3CC[C@H](O)C3=O)n2)c2c(n1)CNC2=O', '≤ 6.00');

Shifting focus to the molecule that follows.
Request: # assay system Tyrosine-protein kinase JAK2 (Homo sapiens): give pKi of "C[C@H](Nc1ccnc(-c2cnn3cccnc23)n1)c1ccc(Cl)cc1"
Result: 6.30 to 7.00
